Entry source: ChEMBL document CHEMBL2311378

Each entry below carries its reported Activity.
# System: Trypanosoma cruzi
# Measurement Notes: Antitrypanosomal activity against Trypanosoma cruzi Y bloodstream trypomastigotes isolated from infected Swiss mouse blood assessed as lysis level at 0.5 uM after 24 hrs
# Format: functional
Give the value in % but do not write % after it.

Example compounds with recorded Activity:
[
  {
    "Compound": "CCCCCCCC1=C(CCCCCCC)C(=O)c2ccccc2C1=O",
    "Measure Unit": "%",
    "Reported Result": 8.1
  },
  {
    "Compound": "CCCCC/C=C\\C/C=C/CCCCCCCC1=C(O)C(=O)c2ccccc2C1=O",
    "Measure Unit": "%",
    "Reported Result": 44.5
  },
  {
    "Compound": "CCCCC/C=C/C/C=C/CCCCCCCC1=C(C)C(=O)c2ccccc2C1=O",
    "Measure Unit": "%",
    "Reported Result": 15.2
  }
]

Request: Consider the compound `O=C1C(CCCCc2ccccc2)=C(CCCCc2ccccc2)C(=O)c2ccccc21` and give its recorded Activity.
Response: 3

Request: Consider the compound `CCCCCCCC/C=C/CCCCCCCC1=C(O)C(=O)c2ccccc2C1=O` and give its recorded Activity.
Response: 13.1

* * *

# Tested on: Trypanosoma cruzi
# Measurement Notes: Antitrypanosomal activity against Trypanosoma cruzi Y bloodstream trypomastigotes isolated from infected Swiss mouse blood assessed as lysis level at 2.0 uM after 24 hrs
# Assay type: functional
Activity below 20% gives f; Activity at or above it gives t.

[
  {
    "Compound": "CCCCC/C=C\\C/C=C/CCCCCCCC1=C(O)C(=O)c2ccccc2C1=O",
    "Label": "t"
  }
]

Request: Tell me whether Activity is at least 20% here: `CCCCC/C=C/C/C=C/CCCCCCCC1=C(C)C(=O)c2ccccc2C1=O`
Response: t

Request: Tell me whether Activity is at least 20% here: COc1ccc(C(CC(=O)O)C2=C(C)C(=O)c3ccccc3C2=O)cc1 (racemic)
Response: t

Request: Tell me whether Activity is at least 20% here: `CCCCCCCC/C=C/CCCCCCCC1=CC(=O)c2ccccc2C1=O`
Response: t

Request: Tell me whether Activity is at least 20% here: `CCCCCCCC/C=C/CCCCCCCC1=C(O)C(=O)c2ccccc2C1=O`
Response: t

Request: Tell me whether Activity is at least 20% here: `CCCCCCCC/C=C/CCCCCCCC1=C(C)C(=O)c2ccccc2C1=O`
Response: t

Request: Tell me whether Activity is at least 20% here: COc1ccc(C(CC(=O)O)C2=CC(=O)c3ccccc3C2=O)cc1 (racemic)
Response: f

Request: Tell me whether Activity is at least 20% here: `O=C1C(CCCCc2ccccc2)=C(CCCCc2ccccc2)C(=O)c2ccccc21`
Response: t

Request: Tell me whether Activity is at least 20% here: `CCCCCCCC1=C(CCCCCCC)C(=O)c2ccccc2C1=O`
Response: f

Request: Tell me whether Activity is at least 20% here: `CCCCC/C=C/C/C=C/CCCCCCCC1=CC(=O)c2ccccc2C1=O`
Response: f

* * *

# System: Trypanosoma cruzi
# Measurement Notes: Antitrypanosomal activity against Trypanosoma cruzi Y bloodstream trypomastigotes isolated from infected Swiss mouse blood assessed as lysis level at 0.5 uM after 24 hrs
# Assay type: functional
Property: Activity (%)
Give the value in % but do not write % after it.

[
  {
    "Compound": "COc1ccc(C(CC(=O)O)C2=C(C)C(=O)c3ccccc3C2=O)cc1 (racemic)",
    "Activity, %": 12
  },
  {
    "Compound": "CCCCCCCC/C=C/CCCCCCCC1=C(C)C(=O)c2ccccc2C1=O",
    "Activity, %": 27.2
  },
  {
    "Compound": "CCCCC/C=C/C/C=C/CCCCCCCC1=CC(=O)c2ccccc2C1=O",
    "Activity, %": 0
  },
  {
    "Compound": "CCCCCCCC/C=C/CCCCCCCC1=CC(=O)c2ccccc2C1=O",
    "Activity, %": 37.2
  }
]

Request: Consider the compound COc1ccc(C(CC(=O)O)C2=CC(=O)c3ccccc3C2=O)cc1 (racemic) and give its recorded Activity.
Response: 0
